Target: Tie2 receptor (Homo sapiens, UniProt Q02763)
Construct: natural cell lines or primary cells which are known to express the receptor of choice; endogenous in cells; host or cells: EA.hy926/B3 cells (HUVEC named as an alternative)
Sequence (Q02763 23-1124): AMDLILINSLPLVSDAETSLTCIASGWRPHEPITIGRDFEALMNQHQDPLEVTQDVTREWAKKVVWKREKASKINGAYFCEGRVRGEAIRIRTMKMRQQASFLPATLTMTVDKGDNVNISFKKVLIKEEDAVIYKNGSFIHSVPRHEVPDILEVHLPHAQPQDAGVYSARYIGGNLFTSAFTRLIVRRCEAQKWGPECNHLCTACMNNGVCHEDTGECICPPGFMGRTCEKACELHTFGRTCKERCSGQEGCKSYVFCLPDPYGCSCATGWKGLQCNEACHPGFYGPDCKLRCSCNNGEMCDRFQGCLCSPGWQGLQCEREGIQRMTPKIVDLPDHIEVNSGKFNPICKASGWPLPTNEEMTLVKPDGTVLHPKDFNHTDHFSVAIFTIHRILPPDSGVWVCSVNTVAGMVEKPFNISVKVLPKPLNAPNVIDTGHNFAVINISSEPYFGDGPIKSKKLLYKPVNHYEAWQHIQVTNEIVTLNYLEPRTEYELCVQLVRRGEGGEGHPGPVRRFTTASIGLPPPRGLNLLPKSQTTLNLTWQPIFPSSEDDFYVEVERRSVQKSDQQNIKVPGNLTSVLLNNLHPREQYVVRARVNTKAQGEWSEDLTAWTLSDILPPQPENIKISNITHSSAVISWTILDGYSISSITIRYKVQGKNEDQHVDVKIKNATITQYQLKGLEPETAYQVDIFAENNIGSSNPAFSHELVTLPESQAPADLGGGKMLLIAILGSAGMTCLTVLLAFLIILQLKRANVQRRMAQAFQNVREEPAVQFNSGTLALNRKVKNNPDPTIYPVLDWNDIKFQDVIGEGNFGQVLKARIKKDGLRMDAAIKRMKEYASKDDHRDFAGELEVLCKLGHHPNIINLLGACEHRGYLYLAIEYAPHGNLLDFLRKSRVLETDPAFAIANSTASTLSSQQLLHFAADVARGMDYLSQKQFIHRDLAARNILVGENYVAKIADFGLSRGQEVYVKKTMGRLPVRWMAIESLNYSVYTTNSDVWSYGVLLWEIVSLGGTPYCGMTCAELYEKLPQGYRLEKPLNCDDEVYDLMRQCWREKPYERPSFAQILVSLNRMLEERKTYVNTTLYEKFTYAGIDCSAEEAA
Assay: Cellular Tie2 autophosphorylation assay (Test (b))
Format: cell-based
Settings: Ang1 ligand stimulated whole cells, e.g. EA.hy926/B3; read-out: IC50 (μM) Test (b): Inhibition of autophosphorylation of Tie2 receptor tyrosine kinase
QUANTITY MEASURED: IC50 (µM)

> print(dat)
                           substance.smiles                                       tgt  quantity.measured  quantity.unit  reported.measurement
1  CC(C)(C)c1cc(NC(=O)Nc2cccc(C#Cc3cnc(NCCN4CCCC4)nc3)c2)no1  Tie2 receptor (Homo sapiens, UniProt Q02763)               IC50             µM                  2.59
2  CC(C)(C)c1nnc(NC(=O)Nc2cccc(C#Cc3cnc(NCCN4CCCC4)nc3)c2)s1  Tie2 receptor (Homo sapiens, UniProt Q02763)               IC50             µM                  3.29
3  Cc1cc(NC(=O)Nc2cccc(C#Cc3cnc(N)nc3)c2)on1  Tie2 receptor (Homo sapiens, UniProt Q02763)               IC50             µM                 0.337

====

Target: Tie2 receptor tyrosine kinase (Homo sapiens)
Construct: consist of only the intracellular portion C-terminal portion of the respective receptor, within which is found the kinase domain; made in house; host or cells: baculovirus/Sf21 insect cells (or alternative equivalent); used as cleared cell lysate
Experiment: In vitro receptor tyrosine kinase inhibition assay (Test (a)), ELISA based
Format: biochemical
Settings: recombinant human Tie2 kinase domain
QUANTITY MEASURED: IC50 (µM)

> print(dat)
                                   compound  quantity.unit  reported.measurement
1  CC(C)(C)c1nnc(NC(=O)Nc2cccc(C#Cc3cnc(NCCN4CCCC4)nc3)c2)s1 [Example 48]             µM                  74.9
2  CC(C)(C)c1cc(NC(=O)Nc2cccc(C#Cc3cnc(NCCN4CCCC4)nc3)c2)no1 [Example 33]             µM                   5.7
3  Cc1cc(NC(=O)Nc2cccc(C#Cc3cnc(N)nc3)c2)on1 [Example 19]             µM                  19.9
